- PROCEDURE SUMMARY: Binding affinity to SARS-CoV-2 3CL protease
- Design: species or system Severe acute respiratory syndrome coronavirus 2
MEASURED PROPERTY: Ki (nM)
Answers are plain numbers, in nM.

`COc1cccc2[nH]c(C(=O)N[C@@H](CC(C)C)C(=O)N[C@@H](C[C@@H]3CCNC3=O)C(=O)c3nc4ccccc4s3)cc12` yielded Ki of 17.6
